System: MOLT-4 leukemia
Assay: NCI-60 one-dose screen, 48 h (100 = growth as untreated, 0 = no growth, -100 = all killed)
Settings: 10 µM
This is part of a sample that, as a whole, favours compounds with a hit. Of some 83,000 tested, about 20% had one in any assay.
Readout kind: growth (%)
Value expressed in %; do not type the unit.

Known results for compounds:
# Compound, Target under test, growth (%)
measured = [
    ("CONC[C@]1(C)C=C2C(=O)[C@](C)(O)C3(CC3)C(C)=C2[C@H]1O", "MOLT-4 leukemia", -13.9),
    ("O=C(CNc1nc(-c2ccccc2)cs1)Nc1ccc(Br)cc1", "MOLT-4 leukemia", -12.4),
]

Query :: Find the recorded growth belonging to `Clc1cccc(N/N=C/c2c[nH]c3ccccc23)n1` and report it.
Result :: 23.8

Query :: Find the recorded growth belonging to CCOC(=O)C1NN(c2ccc(S(N)(=O)=O)cc2)c2nc3nc(-c4cccs4)cc(-c4cccs4)c3c(=O)n21 (centres undefined) and report it.
Result :: 78.7
